# method.description: yeast display, Sf9 membrane polyspecificity reagent, FACS + sequencing; frameworks hold sequencing errors
measured.attribute: polyreactivity (PSR sort gate)

A selection of reference data follows.
[
  {
    "entry.sequence": "QVQLVESGGGLVQAGGSLRLSCAASGSIFRAYAMGWYRQAPGKERELVAAITWSGGRTFYADSVKGRFTISRDNAKNTVYLQMNSLKPEDTAVYYCAAFVYQRGRIYDYWGQGTQVTVSS",
    "result": "high polyreactivity"
  },
  {
    "entry.sequence": "QVQLVESGGGLVQAGGSLRLSCAASGSIFNSNAMGWYRQAPGKERELVAAITGSGGRTYYADSVKGRFTISRDNAKNTVYLQMNSLKPEDTAVYYCNAVTYSRRYAYYDWGQGTQVTVSS",
    "result": "high polyreactivity"
  },
  {
    "entry.sequence": "QVQLVESGGGLVQAGGSLRLSCAASGFILNAYTMGWYRQAPGKERELVATITINGGSTYYADSVKGRFTISRDNAKNTVYLQMNSLKPEDTPVYYCNADYWYKYDYWGQGTQVTVSS",
    "result": "low polyreactivity"
  },
  {
    "entry.sequence": "QVQLVESGGGLVQAGGSLRLSCAASGRTFSRNAMGWYRQAPGKERELVAAISQRGVSTYYADSVKGRFTISRDNAKNTVYLQMNSLKPEDTAVYYCNTRGTYRYDYWGQGTQVTVSS",
    "result": "low polyreactivity"
  }
]

Now let's try a different one.
Given `QVQLVESGGGLVQAGGSLRLSCAASGNTFHSNAMGWYRQAPGKERELVAAITPSDGDTYYADSVKGRFTISRDNAKNTVYLQMNSLKPEDTSVYYCAAEDDPGEYEYWGQGTQVTVSS` , respond with its polyreactivity (PSR sort gate).
low polyreactivity

###

# method.description: yeast display, Sf9 membrane polyspecificity reagent, FACS + sequencing; frameworks hold sequencing errors
measured.attribute: polyreactivity (PSR sort gate)

A selection of reference data follows.
[
  {
    "entry.sequence": "QVQLVESGGGLVQAGGSLRLSCAASGRIFKGNAMGWYRQAPGKEREFVADISQRGGSTYYADSVKGRFTISRDNAKNTVYLQMNSLKPEDTAVYYCAAVRKSVGVKYDYWGQGTQVTVSS",
    "result": "high polyreactivity"
  },
  {
    "entry.sequence": "QVQLVESGGGLDQAGGSLRLSCAASGLISYRNAMGWYRQAPGKERELVAAISSDGSTYYADSVKGRFTISRDNAKNSVYLQMNSLKPEDTAVYYCNADVFRKFGSPSAYKSHRYDYWGQGTQVTVSS",
    "result": "low polyreactivity"
  },
  {
    "entry.sequence": "QVQLVESGGGLVQAGGSLLLSCAASGRTFYYNDMGWYRQAPGKERELVASISYGGSTYYADSVKGRFTISRDNAKNTVYLQMNSLKPEDTAVYYCATVDWRWRYARRPRYDYWGQGTQVTVSS",
    "result": "high polyreactivity"
  },
  {
    "entry.sequence": "QVQNVESGGGLVQARGSLRLSCAASGRTFTESDMGRYRQAPGKERELVAAITSVGSTYYADSVKGRFTISRYNAKNTVYLQMNSLKPEDTAVYYCAAEWQNTNMDYWGQGTQVTVSS",
    "result": "low polyreactivity"
  }
]

Given `QVQLVESGGGLVQAGGSLRLSCAASGRIFIVNTMGWYRQAPGKERELVATIDSDGDTNYADSVKGRFTISRDNAKNTVYLQMNSLKPEDTAVYYCAASYTHTLAALKGGRMDYWGQGTQVTVSS` , respond with its polyreactivity (PSR sort gate).
low polyreactivity
